Tested on: EKVX
assay_protocol: NCI tumour cell line growth inhibition, 48 h
Activity calls are given as the source filed them. Cut-off read from the data, not from the text of the source: active = GI50 up to about 1.1 µM and inactive = higher.
Entries and their GI50 values follow.

Worked set:
INSERT INTO results (molecule, observation_type, measured) VALUES
  ('BrC1(Br)C2/C=C\CCCCC21 (stereo not drawn)', 'GI50', '> 100 µM (inactive)'),
  ('COC(=O)C1(C)OC(C)=NC1(C(=O)OC)C(=O)OC (stereo not drawn)', 'GI50', '> 100 µM (inactive)'),
  ('O=C(CC(c1ccccc1)c1c(O)c2ccccc2oc1=O)c1ccccc1 (stereo not drawn)', 'GI50', '72.1 µM (inactive)'),
  ('CCCc1cc(-c2ccc(-c3cc(CCC)c(C=O)[nH]3)s2)[nH]c1C=O', 'GI50', '> 100 µM (inactive)'),
  ('CCCCc1ccc(Nc2nc(Cl)c3[nH]cnc3n2)cc1', 'GI50', '33.8 µM (inactive)');

Query: Hello, please tell me recorded GI50 for this one: CCCCOC(=O)C(=O)C(CC(C(=O)Cc1ccccc1)c1ccccc1)C(=O)C=C(C)C (stereo not drawn)
Result: > 100 µM (inactive)

Query: Output GI50 of CCCCC#CS(=O)(=O)C(F)(F)F
Result: > 100 µM (inactive)

Query: Report GI50, nothing else, for this molecule: CCC1c2[nH]c3ccccc3c2C[C@H]2C(=O)NC(CCCCNC(=O)OC(C)(C)C)C(=O)N12 (stereo partly drawn)
Result: 42 µM (inactive)

Query: Assign GI50 to the following record: CC1=C(C(=O)Nc2cccc(Cl)c2)C(c2ccccc2F)C(C(=O)Nc2cccc(Cl)c2)=C(C)N1
Result: 6.22 µM (inactive)

Query: Please report GI50 for the following molecule: O=C(NCCCc1cn[nH]c(=O)n1)c1cccc2nc3ccccc3nc12
Result: > 100 µM (inactive)

Query: Please supply the value of reported GI50 for the item S=C1Cc2cc3ccccc3nc2-c2ccccc2N1
Result: 38 µM (inactive)

Query: Specify GI50 for Cc1ccc(/N=N/c2c(C)nn(-c3ccccc3)c2C)c(Br)c1 and stop.
Result: > 100 µM (inactive)

Query: Retrieve GI50 measured for CO[C@@]12[C@H](COC(N)=O)C3=C(C(=O)C(C)=C(N)C3=O)N1C[C@@H]1N[C@@H]12 [MITOMYCIN] and print it.
Result: 4.62 µM (inactive)

Query: Tell me its GI50 given Nc1ccc(OCC(O)N2C(=O)c3ccccc3C2=O)cc1 (stereo not drawn) as the entry.
Result: > 100 µM (inactive)

Query: Identify measured GI50 associated with Cc1nc2ccccc2nc1-c1ccc(/N=[N+](\[O-])c2ccc(-c3nc4ccccc4nc3C)cc2)cc1
Result: > 100 µM (inactive)

Query: Look up and state reported GI50 for O=C1CCc2ccccc2O1 [DIHYDROCOUMARIN]
Result: > 100 µM (inactive)

Query: Supply reported GI50 belonging to this molecule: CCCCCCCCCCCCCCCCCCC1=C(O)C(=O)C=C(OC)C1=O
Result: 41.7 µM (inactive)

Query: Give GI50 for the following molecule: COc1ccccc1C(O)(c1ccccc1)C(O)(c1ccccc1)c1ccccc1OC (stereo not drawn)
Result: > 100 µM (inactive)

Query: Consider the molecule O=c1c2ccccc2nnn1-c1n[nH]c2ccccc12 and give its recorded GI50.
Result: > 100 µM (inactive)

Query: Please supply the value of reported GI50 for the item CCOc1ccc2c(c1)[n+]([O-])c(S(=O)(=O)c1ccc(C)cc1)c(N)[n+]2[O-]
Result: > 100 µM (inactive)

Query: Note GI50 for the molecule shown: Cc1nc2c(nc1C)C(=O)C1=C(C2=O)C2C=CC1CC2
Result: 7 µM (inactive)

Query: State its GI50: C#CCN(N=O)C(=O)NC(CCCCNC(=O)OCc1ccccc1)C(=O)OCc1ccccc1 (stereo not drawn)
Result: 22.7 µM (inactive)

Query: Return reported GI50. Input molecule: c1ccc([P+](c2ccccc2)(c2ccccc2)C2Sc3ccccc3S2)cc1
Result: 22.9 µM (inactive)

Query: Read the entry O=C1c2c(ccc3c2CCCC3)CC1Cc1ccc2c(c1)CCCC2 (stereo not drawn) and write its reported GI50.
Result: 45.5 µM (inactive)

Query: Tell me measured GI50 for Oc1ccccc1-c1n[nH]c(-c2ccccc2O)n1 please.
Result: 2.11 µM (inactive)

Query: Supply GI50 value. Item: COc1ccc(C(=O)Oc2c(C#N)sc3c2c(=O)n(-c2ccccc2)c(=S)n3-c2ccccc2)cc1
Result: 12.9 µM (inactive)

All values here come from ChEMBL document CHEMBL1201862.
